- protocol-details: In vitro plasma protein binding (ultrafiltration)
- Assay type: in vitro ADME, human
- experimental-parameters: human plasma, ultrafiltration, n = 3
Below is a list of entries, each paired with its recorded fp (free plasma fraction) value.
Field format: number, assumed %, no unit text.

Below are worked cases with known answers.
compound: [18F]c1ccc(-c2csc(-c3nc(-c4cnc5c(c4)OCO5)cs3)n2)cn1 [[^18F]d8]
experimental-result: 0.85

compound: [18F]c1ccc(-c2csc(-c3nc(-c4ccc5c(c4)OCO5)cs3)n2)cn1 [[^18F]d6]
experimental-result: 0.14

compound: COc1ccc(-c2csc(-c3nc(-c4ccc5c(c4)OCO5)cs3)n2)cc1[18F] [[^18F]d2]
experimental-result: 0.25

Consider now this further compound.
Item COc1ccc(-c2csc(-c3nc(-c4cnc5c(c4)OCO5)cs3)n2)cc1[18F] [[^18F]d4] has what recorded fp (free plasma fraction)?
0.45

====

- tested-system: human recombinant α-syn fibrils (Homo sapiens)
- protocol-details: Competition binding assay against [3H]DCVJ, α-syn fibrils
- experimental-parameters: radioligand/pan-amyloid ligand
readout-type: pKd
Entry type: numeric. Quantity: pKd, the -log10 of concentration in molar units.

Query (molecule): N#CC(C#N)=Cc1cc2c3c(c1)CCCN3CCC2 [DCVJ, 9-(2,2-dicyanovinyl)julolidine, reference compound] ; field requested: pKd
8.35

====

- tested-system: tau fibrils (Homo sapiens)
- Sequence (P10636 2-758): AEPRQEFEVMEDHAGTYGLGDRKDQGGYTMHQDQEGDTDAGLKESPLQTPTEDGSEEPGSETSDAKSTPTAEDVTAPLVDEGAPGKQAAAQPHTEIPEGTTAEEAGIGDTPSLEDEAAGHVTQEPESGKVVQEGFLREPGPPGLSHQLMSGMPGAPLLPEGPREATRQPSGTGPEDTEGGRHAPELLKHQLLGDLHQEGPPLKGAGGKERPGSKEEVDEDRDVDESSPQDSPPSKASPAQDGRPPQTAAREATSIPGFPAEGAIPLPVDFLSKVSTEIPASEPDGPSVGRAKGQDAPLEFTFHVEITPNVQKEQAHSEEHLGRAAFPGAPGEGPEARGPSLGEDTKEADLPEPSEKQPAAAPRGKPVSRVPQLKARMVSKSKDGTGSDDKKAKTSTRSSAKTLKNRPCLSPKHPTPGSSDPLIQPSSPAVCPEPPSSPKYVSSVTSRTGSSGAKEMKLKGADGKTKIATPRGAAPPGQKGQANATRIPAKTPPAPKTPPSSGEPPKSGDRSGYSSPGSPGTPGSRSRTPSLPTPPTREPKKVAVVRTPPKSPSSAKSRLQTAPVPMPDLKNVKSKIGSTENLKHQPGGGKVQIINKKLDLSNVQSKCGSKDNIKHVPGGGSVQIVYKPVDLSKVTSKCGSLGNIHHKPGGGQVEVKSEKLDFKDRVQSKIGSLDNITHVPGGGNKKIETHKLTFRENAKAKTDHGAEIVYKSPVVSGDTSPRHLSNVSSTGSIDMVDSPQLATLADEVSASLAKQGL
- protocol-details: Competition binding assay against [3H]DCVJ, tau fibrils
- experimental-parameters: vs [3H]DCVJ 20 nM, fibrils 125 nM
readout-type: Ki

See these solved cases before continuing.
compound: COc1ccc(-c2csc(-c3nc(-c4cnc5c(c4)OCO5)cs3)n2)cc1F
tested-system: tau fibrils (Homo sapiens)
Ki: > 1 µM
--
compound: Fc1ccc(-c2csc(-c3nc(-c4cnc5c(c4)OCO5)cs3)n2)cn1
tested-system: tau fibrils (Homo sapiens)
Ki: > 1 µM
--
compound: COc1ccc(-c2csc(-c3nc(-c4ccc5c(c4)OCO5)cs3)n2)cc1F [d2]
tested-system: tau fibrils (Homo sapiens)
Ki: > 1 µM

// next entry
Requested field: Ki. Item: Fc1ccc(-c2csc(-c3nc(-c4ccc5c(c4)OCO5)cs3)n2)cn1
0.966 µM

====

Reported logD values follow for various compounds
- protocol-details: Log D determination (octanol/PBS pH 7.4)
- Assay type: physicochemical
- experimental-parameters: octanol/PBS pH 7.4, n = 3
# output: bare number, no unit

Param item = COc1ccc(-c2csc(-c3nc(-c4cnc5c(c4)OCO5)cs3)n2)cc1[18F] [[^18F]d4] ; retrieve measured logD.
3

====

- protocol-details: Log D determination (octanol/PBS pH 7.4)
- Type: physicochemical
- experimental-parameters: octanol/PBS pH 7.4, n = 3
- Protocol: To a solution of [^18F]d2, [^18F]d4, [^18F]d6, and [^18F]d8 (0.5–1.0 MBq) in 0.5 mL octanol, 0.5 mL PBS (pH 7.4) was added in a 1.5 mL Eppendorf vial. The vials were vigorously vortexed for 10 min. […] Aliquots (100 μL) of the aqueous and the octanol phase were collected carefully and the amount radioactivity in the respective samples was quantified using a γ-counter. The log octanol/PBS values were calculated from the means of n = 3 separate determinations.
Measured logD, listed per entry.

Check out these entries, answers already filled in.
compound: COc1ccc(-c2csc(-c3nc(-c4ccc5c(c4)OCO5)cs3)n2)cc1[18F] [[^18F]d2]
readout-type: logD
experimental-result: 3.1
//
compound: [18F]c1ccc(-c2csc(-c3nc(-c4cnc5c(c4)OCO5)cs3)n2)cn1 [[^18F]d8]
readout-type: logD
experimental-result: 2.6

Now, please, on to the next compound.
Please look up its logD: [18F]c1ccc(-c2csc(-c3nc(-c4ccc5c(c4)OCO5)cs3)n2)cn1 [[^18F]d6]
2.8
